# Percent Effect values compiled below
# Test system: Wolbachia pipientis
# protocol: Anti-Wolbachia Cell-Based Screen
# Assay type: functional
# Design: scale not given: in the data most compounds retested in dose-response had high values
# measurement.parameters: 5 µM
Among all 48,000 compounds or so, about 13,000 (27%) showed an effect of 50% or more. This is one part of the list.
Numeric answer only, unit % assumed.

These solved cases illustrate the format of a correct answer.
| compound | Percent Effect / % |
| --- | --- |
| COc1ccccc1C(=O)N1CC2(COC(C)(C)OC2)C1 | -9.843 |
| NC(=O)COc1ccc(C(=O)N2CCCC(n3ccnc3)C2)cc1 (configuration not stated) | 96.26 |
| O=C1COc2cc(C(=O)N3CCCC(n4ccnc4)C3)ccc2N1 (configuration not stated) | -12.82 |
| CCc1ccc(CN2C[C@@H](C(=O)O)[C@H](c3ccccc3OC)C2)o1 | -18.6 |
| Cc1ccc(C(=O)N2CC(=O)N(Cc3ccco3)CC(O)C2)cc1 (configuration not stated) | 118.6 |

What value of Percent Effect has been reported for the following compound? CN(Cc1ccccc1)c1ncccc1CNC(=O)c1ccnn1C
-0.05459

What value of Percent Effect has been reported for the following compound? COc1ccccc1C(=O)N1CC(=O)N(Cc2ccco2)CC(O)C1 (configuration not stated)
85.9

Source of measurements: ChEMBL document CHEMBL3988442
